# assay-system: Nuclear receptor subfamily 1 group D member 1 (Homo sapiens)
# experiment: Agonist activity at Rev-Erb alpha (unknown origin) by BMAL1-luciferase reporter assay
assay-endpoint: EC50

Input line: Complete the entry with EC50 for O=C(c1cccc2ccccc12)N1Cc2ccccc2CC1CNCc1ccccc1 (stereo unspecified)
Output line: 3 µM

* * *

# assay-system: Nuclear receptor subfamily 1 group D member 1 (Homo sapiens, UniProt P20393)
# Sequence (P20393 whole entry): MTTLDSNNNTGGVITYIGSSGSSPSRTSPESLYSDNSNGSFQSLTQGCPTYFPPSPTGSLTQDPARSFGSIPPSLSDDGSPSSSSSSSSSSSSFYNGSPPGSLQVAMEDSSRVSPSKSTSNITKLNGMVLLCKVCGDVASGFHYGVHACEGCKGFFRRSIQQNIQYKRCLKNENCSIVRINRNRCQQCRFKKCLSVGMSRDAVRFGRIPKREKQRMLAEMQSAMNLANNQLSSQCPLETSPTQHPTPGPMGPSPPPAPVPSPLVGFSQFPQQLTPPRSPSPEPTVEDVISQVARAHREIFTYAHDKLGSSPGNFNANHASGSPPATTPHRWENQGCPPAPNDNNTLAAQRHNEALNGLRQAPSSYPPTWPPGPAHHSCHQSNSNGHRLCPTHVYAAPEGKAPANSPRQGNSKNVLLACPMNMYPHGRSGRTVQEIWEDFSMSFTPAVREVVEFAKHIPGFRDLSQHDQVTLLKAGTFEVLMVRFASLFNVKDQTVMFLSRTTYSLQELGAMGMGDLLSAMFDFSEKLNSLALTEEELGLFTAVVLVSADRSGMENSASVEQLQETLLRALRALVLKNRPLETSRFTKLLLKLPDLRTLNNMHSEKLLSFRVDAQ
# experiment: Agonist activity at Rev-Erb alpha (unknown origin) by FRET assay
# Type: single protein
assay-endpoint: log10(EC50) (log10 of the value in nM)
Give log10 of EC50, with EC50 taken in nM.

Below are worked cases with known answers.
# molecule, log10(EC50)
measured = [
    ("CC(C)(C)Oc1ccc(OC[C@@H]2Cc3cc(F)ccc3CN2C(=O)c2cccc3ccccc23)cc1", 1.83),
    ("Cc1cc(F)ccc1-c1ccc(C(F)(F)F)cc1Oc1nn(C)c(=O)c2ccsc12", 3.05),
    ("FC(F)(F)c1ccc(-c2ccc3ncc(Cl)n3c2)c(Oc2nn3ccnc3c3ccsc23)c1", 3.74),
    ("Cc1cc(Cl)cc(CN(Cc2ccc(Cl)cc2)Cc2ccc([N+](=O)[O-])s2)c1", 1.70),
    ("CCCCCNC(=O)N1CCC(CN(Cc2ccc(Cl)cc2)Cc2ccc([N+](=O)[O-])s2)C1 (stereo not drawn) [SR9011]", 2.85),
]

# next molecule below
Input line: GET log10(EC50) | system: Nuclear receptor subfamily 1 group D member 1 (Homo sapiens, UniProt P20393) | item: `Cn1nc(Oc2cc(C(F)(F)F)ccc2-c2ccsc2Cl)c2sccc2c1=O`
Output line: 2.72
